experiment: A qHTS for Small Molecule Inhibitors of Shiga Toxin; conditions: Vero cells, Shiga toxin protein synthesis inhibition reporter; at 38.7 µM, hits give high values; further: 0% is about no effect
In all, about 290,000 compounds went through this assay and about 27,000 (9.3%) were called active. Only a selection was taken, and actives are over-represented in it overall.
Give measured inhibition for each item. Keep answers brief.
Write down the numeric answer in % and omit the unit.

In: For "COc1cc(OC)cc(C(=O)N[C@H](C(=O)Nc2nc3ccccc3[nH]2)C(C)C)c1" , what is its reported inhibition?
Out: -3.89

In: For "CCn1c(=O)c2ccccc2n(CC(=O)N2CCCc3ccccc32)c1=O" , what is its reported inhibition?
Out: -12.6

In: For "CCn1c(SCC(=O)Nc2ccc(Br)cc2)nc2sc3c(c2c1=O)CCN(C)C3" , what is its reported inhibition?
Out: 18.8

In: For CC(CN1CCOCC1)OC(=O)c1ccc(Cl)cc1Cl (stereo unspecified) , what is its reported inhibition?
Out: 38.1

In: For "COc1cc(CNCc2ccc(OC)c3ccccc23)cc(OC)c1OC" , what is its reported inhibition?
Out: -2.52

In: For "Cc1ccc(OCC(=O)Nn2cnc3ccccc32)cc1" , what is its reported inhibition?
Out: -4.5

----------
assay: A qHTS for Small Molecule Inhibitors of Shiga Toxin; details: Vero cells, Shiga toxin protein synthesis inhibition reporter; at 38.7 µM, hits give high values; further: 0% is about no effect
In all, about 290,000 compounds went through this assay and about 27,000 (9.3%) were called active. This is one part of a sample in which actives are shown more often than they occur.
Quantity: inhibition (%)
Write down the numeric answer in % and omit the unit.

In: For CC1CC(C)CN(C(=O)CSc2ccsc2[N+](=O)[O-])C1 (stereo unspecified) , what is its reported inhibition?
Out: 63.3

In: For COc1ccccc1-c1nnc(SCC(=O)N2CC(C)CC(C)C2)o1 (stereo unspecified) , what is its reported inhibition?
Out: -7.49

In: For "Cc1ccc(C(=O)Oc2ccc(C(=S)N3CCOCC3)cc2)cc1" , what is its reported inhibition?
Out: 3.46

In: For "CSc1ccc(/C=N\NC(=O)COc2ccc(Cl)cc2Br)cc1" , what is its reported inhibition?
Out: 59.9

In: For Oc1ccc(Cl)cc1C1C=C(c2ccc3c(c2)OCO3)NC(c2c(F)cccc2Cl)N1 (stereo unspecified) , what is its reported inhibition?
Out: 68.7

In: For "Cc1oc2c(C)c3oc(=O)c(CC(=O)N[C@@H](CC(C)C)C(=O)N[C@@H](Cc4ccccc4)C(=O)O)c(C)c3cc2c1C" , what is its reported inhibition?
Out: -6.95

In: For "CSc1ccc(/C=N\NC(=O)CC(=O)NC(C)C)cc1" , what is its reported inhibition?
Out: 14.5

In: For "Brc1ccc(-c2nnc(-c3ccccc3)o2)o1" , what is its reported inhibition?
Out: 71.5

In: For O=C(O)C1CC=CC2CCN(C3CCCCC3)C(=O)C21 (stereo unspecified) , what is its reported inhibition?
Out: -9.66

In: For "Brc1ccc(-c2noc(-c3ccccc3)n2)o1" , what is its reported inhibition?
Out: 139

In: For "CSc1ccc(/C=N/NC(=O)c2cccc(Cl)c2)cc1" , what is its reported inhibition?
Out: 4.92
